biological target: mouse EP4 (Mus musculus)
Sequence (P32240 whole entry): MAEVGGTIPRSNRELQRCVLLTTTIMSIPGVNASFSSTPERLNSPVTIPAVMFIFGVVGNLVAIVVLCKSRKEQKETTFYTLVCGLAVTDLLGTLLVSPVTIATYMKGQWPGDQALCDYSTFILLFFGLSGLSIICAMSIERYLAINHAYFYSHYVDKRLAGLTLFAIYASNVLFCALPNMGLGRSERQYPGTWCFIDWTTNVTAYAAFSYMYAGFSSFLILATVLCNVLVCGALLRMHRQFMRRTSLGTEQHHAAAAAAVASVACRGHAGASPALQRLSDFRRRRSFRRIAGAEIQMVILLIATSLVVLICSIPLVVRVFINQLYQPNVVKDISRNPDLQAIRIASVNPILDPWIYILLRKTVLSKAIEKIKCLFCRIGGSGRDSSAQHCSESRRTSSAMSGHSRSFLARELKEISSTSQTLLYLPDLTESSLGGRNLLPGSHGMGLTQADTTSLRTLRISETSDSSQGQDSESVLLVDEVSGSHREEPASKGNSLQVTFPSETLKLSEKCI
pKi: −log10 of the molar value.
READOUT: pKi

# annotated cases, reported pKi shown
# pKi lookup, item O=C(O)CCC/C=C\C[C@@H]1[C@@H](/C=C/CC(O)C2(CC3CC3)CCC2)[C@H](O)C[C@H]1Cl (stereo partly drawn)
6.40

# pKi lookup, item C=CCC1(C(O)C/C=C/[C@H]2[C@H](O)CC(=O)[C@@H]2C/C=C\CCCC(=O)O)CCC1 (stereo partly drawn)
< 5.00

# pKi lookup, item CCC1(C(O)C/C=C/[C@H]2[C@H](O)CC(=O)[C@@H]2C/C=C\CCCC(=O)O)CCC1 (stereo partly drawn)
< 5.00

// for each compound below, give its pKi
1. CCCC1(C(O)C/C=C/[C@H]2[C@H](OC)CC(=O)[C@@H]2C/C=C\CCCC(=O)O)CCC1 (stereo partly drawn)
2. C=CCC1(C(O)C/C=C/[C@@H]2[C@@H](C/C=C\CCCC(=O)OC)[C@H](Cl)C[C@H]2O)CCC1 (stereo partly drawn)
3. C=C1C[C@@H](O)[C@H](/C=C/CC(O)C2(CCC)CCC2)[C@H]1C/C=C\CCCC(=O)O (stereo partly drawn)

["< 5.00", "< 5.00", "< 5.00"]

Origin of the recorded values: patent US20030186939A1
